B1: Storkhead-box protein 2, residues 64 to 141; numbered along this chain, Q9P2F5 (parent)
chain: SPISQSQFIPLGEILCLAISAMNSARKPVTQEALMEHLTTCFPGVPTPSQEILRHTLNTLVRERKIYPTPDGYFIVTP

# Variants of: B1
# Procedure Details: abundance fitness (aPCA) (normalised: wild type 0, dead -1); higher = more abundant; growth selection in yeast, the domain comes from the species named
# Experimental Setup: Homo sapiens
abundance fitness below -0.2 gives F; abundance fitness at or above it gives T.

* E51D | T
* S6W | F
* V61Q | T
* P2G | T
* Q31A | T
* P43E | T
* M22E | F
* S1G | F
* T69Y | F
* I3F | F
* S20R | T
* V45I | T
* P48C | T
* E63D | T
* V29Q | F
* E36V | T
* S1W | F
* A21M | F
* V45R | T
* T77E | T
* P10F | T
* P28Y | T
* K27G | T
* N58T | T
* E13P | T
* Y73K | T
* L11Y | T
* V61F | T
* H37S | F
* S49N | T
* M22N | F
* L57F | F
* T30V | T
* I52E | T
* V45K | F
* R64K | T
* T69Q | T
* S1T | F
* I52K | T
* G72V | F
* I14C | T
* Q7E | T
* E36P | F
* L34C | T
* H55P | F
